target: C5aR polypeptide-03 (UniProt P21730); experiment: ELISA, polypeptide coated at 1.0 µg/mL
measuredQuantity: OD450 nm (OD450 nm)
Supply the numeric figure in OD450 nm, leaving out any unit text.

Study these solved cases before continuing.
8B5D1A9 (antibody, V domains shown) VH: QVQLKQSGAELVKPGASVKISCKTSGYIFTDYYINWMKQRPGQGLEWIGKIGPGSGTTFYNEKFKGKATLTADKSSTTLYMQLSSLTAEDSAVYFCTRRGYYSSSYFYWGQGTTLTVSS VL: DIVMTQSPSSLSVSAGEKVIMSCKSSQSLLNSERQKNYLAWYQQKPGQSPKLLIYGASTRESGVPDRFTGSGSGTDFTLTISSVQAEDLAVYYCLNDHSYPLTFGAGTKLELK
0.05
5F8E2C11 (antibody, V domains shown) VH: QVQLRQSGPGLVQPSQSLSITCTVSGFSLTSYGVHWVRQSPGKGLEWLGVIWSGGSTDYNAAFISRLSISKDYSKSQIFLTMNSLQTDDTAIYYCARNSRLGNCFDYWGQGTTLTVSS VL: DIVMSQSPSSLAVSAGEKVTMSCKSSQSLLNSRTRKNYLAWYQQKPGQSPKLLIYWASTRESGVPDRFTGSGSGTDFTLTISSVQAEDLAVYYCKQSYNLPAFGGGTKLEIK
0.31

Q. Tell us which OD450 nm value is on record for 43E8F5B6 (antibody, V domains shown) VH: EVQLQQSGPELVKPGASVKISCKASGYTFTDYYMSWMKQSHGKSLEWIGDINPNNGDNIYNQKFKGKATLTVDRSSSTAYMDLRSLTSEDSAVYYCARWYYYVSSFSYWYFDVWGTGTTVTVSS VL: EIVLTQSPTTMAASPGEKITITCSATSSINSNYLHWYQQKPGFSPKLLIYRTSNLASGVPARFSGSGSGTSYSLTIGTMEAEDVATYYCQQGRTIPRTFGSGTKLEIK
A. 0.08

Q. Tell us which OD450 nm value is on record for 2A12B2B2 (antibody, V domains shown) VH: QVQLQQPGADLVKPGASVKMSCKASGYILTTYWITWVKQRPGQGLEWIGDIHPGSGSTKYNEKFKSKATLTVDTSSSTAYMQLTRLSSEDSAVYYCARRDYWGQGTTLTVSS VL: DIQMTQTTSSLSASLGDKVTISCRASQDISNYLSWYQQKPDGTVKLLIYWISRLHSGVPSRFSGSGSGTDFSLTISNLEQEDIATYFCQQGNSLPPTFGGGTKLEVK
A. 0.06

Q. Tell us which OD450 nm value is on record for 9D5A12G7 (antibody, V domains shown) VH: QVQLKQSGPGLVQPSQSLSITCTVSGFSLTSYGVHWVRQSPGKGLEWLGVIWSGGSTDYNAAFISRLSISKDNSKSQVFFKMNSLQADDTAIYYCARNGLLGNAMDYWGQGTSVTVSS VL: DIVMSQSPSSLAVSAGEKVTMSCKSSQSLLSSRTRKNYLAWYQQKPGQSPKLLIYWASTRESGVPDRFTGSGSGTDFTLTISSVQTEDLAVYYCKQSYNLLTFGAGTTLELK
A. 0.06

Values from patent US20210070875A1
